EXPERIMENT_DESCRIPTION: Approximate solubility test on crystal forms of hydrochloride salt of nepicastat at room temperature
Format: physicochemical
DETAILS: organic solvent or mixture, thermodynamic from solid; room temperature; solvent 1,4-Dioxane
EXPERIMENTAL_ENDPOINT: solubility

Query: Quickly give me recorded solubility for Cl.NCc1c[nH]c(=S)n1[C@H]1CCc2c(F)cc(F)cc2C1.O [crystal form I of hydrochloride salt]
Result: < 1000 µg/mL

* * *

EXPERIMENT_DESCRIPTION: Approximate solubility test of the free base of nepicastat
Assay type: physicochemical
DETAILS: organic solvent or mixture, thermodynamic from solid; approximate solubility; solvent 2-Methyltetrahydrofuran
EXPERIMENTAL_ENDPOINT: solubility

Query: Quickly give me recorded solubility for NCc1c[nH]c(=S)n1[C@H]1CCc2c(F)cc(F)cc2C1 [free base of nepicastat, Nepicastat]
Result: < 1000 µg/mL

* * *

EXPERIMENT_DESCRIPTION: Approximate solubility test on crystal forms of hydrochloride salt of nepicastat at room temperature
Assay type: physicochemical
DETAILS: organic solvent or mixture, thermodynamic from solid; room temperature; solvent N-hexane
EXPERIMENTAL_ENDPOINT: solubility

Query: Quickly give me recorded solubility for Cl.NCc1c[nH]c(=S)n1[C@H]1CCc2c(F)cc(F)cc2C1.O [crystal form I of hydrochloride salt]
Result: < 10 µg/mL

* * *

EXPERIMENT_DESCRIPTION: Approximate solubility test on crystal forms of hydrochloride salt of nepicastat at room temperature
Assay type: physicochemical
DETAILS: organic solvent or mixture, thermodynamic from solid; room temperature; solvent 2-Methyltetrahydrofuran
EXPERIMENTAL_ENDPOINT: solubility

Query: Quickly give me recorded solubility for Cl.NCc1c[nH]c(=S)n1[C@H]1CCc2c(F)cc(F)cc2C1.O [crystal form I of hydrochloride salt]
Result: < 1000 µg/mL

* * *

EXPERIMENT_DESCRIPTION: Approximate solubility test on crystal forms of hydrochloride salt of nepicastat at room temperature
Type: physicochemical
DETAILS: aqueous with cosolvent or surfactant or cyclodextrin, thermodynamic from solid; room temperature; solvent 50% Acetonitrile
EXPERIMENTAL_ENDPOINT: solubility

Query: Quickly give me recorded solubility for Cl.NCc1c[nH]c(=S)n1[C@H]1CCc2c(F)cc(F)cc2C1.O [crystal form I of hydrochloride salt]
Result: 80 to 100 mg/mL

* * *

EXPERIMENT_DESCRIPTION: Approximate solubility test on crystal forms of hydrochloride salt of nepicastat at room temperature
Type: physicochemical
DETAILS: organic solvent or mixture, thermodynamic from solid; room temperature; solvent Chloroform
EXPERIMENTAL_ENDPOINT: solubility (µg/mL)
// units = µg/mL; emit number, no label

Query: Quickly give me recorded solubility for Cl.NCc1c[nH]c(=S)n1[C@H]1CCc2c(F)cc(F)cc2C1.O [crystal form I of hydrochloride salt]
Result: 380

* * *

EXPERIMENT_DESCRIPTION: Approximate solubility test of the free base of nepicastat
Format: physicochemical
DETAILS: organic solvent or mixture, thermodynamic from solid; approximate solubility; solvent Methanol
EXPERIMENTAL_ENDPOINT: solubility

Query: Quickly give me recorded solubility for NCc1c[nH]c(=S)n1[C@H]1CCc2c(F)cc(F)cc2C1 [free base of nepicastat, Nepicastat]
Result: 6900 to 10300 µg/mL

* * *

EXPERIMENT_DESCRIPTION: Bioavailability test, intravenous and oral administration to mice
DETAILS: mouse, in vivo, IV 15 mg/kg, PO 30 mg/kg
EXPERIMENTAL_ENDPOINT: bioavailability

Query: Quickly give me recorded bioavailability for Cl.NCc1c[nH]c(=S)n1[C@H]1CCc2c(F)cc(F)cc2C1.O [crystal form I of hydrochloride salt]
Result: > 70%

* * *

EXPERIMENT_DESCRIPTION: Approximate solubility test on crystal forms of hydrochloride salt of nepicastat at room temperature
Type: physicochemical
DETAILS: organic solvent or mixture, thermodynamic from solid; room temperature; solvent Acetone
EXPERIMENTAL_ENDPOINT: solubility

Query: Quickly give me recorded solubility for Cl.NCc1c[nH]c(=S)n1[C@H]1CCc2c(F)cc(F)cc2C1.O [crystal form I of hydrochloride salt]
Result: < 1000 µg/mL

* * *

EXPERIMENT_DESCRIPTION: Approximate solubility test of the free base of nepicastat
Assay type: physicochemical
DETAILS: organic solvent or mixture, thermodynamic from solid; approximate solubility; solvent Methyl tert-butyl ether
EXPERIMENTAL_ENDPOINT: solubility

Query: Quickly give me recorded solubility for NCc1c[nH]c(=S)n1[C@H]1CCc2c(F)cc(F)cc2C1 [free base of nepicastat, Nepicastat]
Result: < 1000 µg/mL

* * *

EXPERIMENT_DESCRIPTION: Approximate solubility test on crystal forms of hydrochloride salt of nepicastat at room temperature
Assay type: physicochemical
DETAILS: aqueous with cosolvent or surfactant or cyclodextrin, thermodynamic from solid; room temperature; solvent 50% Tetrahydrofuran
EXPERIMENTAL_ENDPOINT: solubility

Query: Quickly give me recorded solubility for Cl.NCc1c[nH]c(=S)n1[C@H]1CCc2c(F)cc(F)cc2C1.O [crystal form I of hydrochloride salt]
Result: 100 to 130 mg/mL

* * *

EXPERIMENT_DESCRIPTION: Approximate solubility test of the free base of nepicastat
Assay type: physicochemical
DETAILS: thermodynamic from solid; approximate solubility; solvent Purified water
EXPERIMENTAL_ENDPOINT: solubility

Query: Quickly give me recorded solubility for NCc1c[nH]c(=S)n1[C@H]1CCc2c(F)cc(F)cc2C1 [free base of nepicastat, Nepicastat]
Result: < 1000 µg/mL

* * *

EXPERIMENT_DESCRIPTION: Approximate solubility test on crystal forms of hydrochloride salt of nepicastat at room temperature
Assay type: physicochemical
DETAILS: organic solvent or mixture, thermodynamic from solid; room temperature; solvent Ethyl acetate
EXPERIMENTAL_ENDPOINT: solubility (µg/mL)
// units = µg/mL; emit number, no label

Query: Quickly give me recorded solubility for Cl.NCc1c[nH]c(=S)n1[C@H]1CCc2c(F)cc(F)cc2C1.O [crystal form I of hydrochloride salt]
Result: 10

* * *

EXPERIMENT_DESCRIPTION: Approximate solubility test on crystal forms of hydrochloride salt of nepicastat at room temperature
Assay type: physicochemical
DETAILS: organic solvent or mixture, thermodynamic from solid; room temperature; solvent Methanol
EXPERIMENTAL_ENDPOINT: solubility (mg/mL)
// units = mg/mL; emit number, no label

Query: Quickly give me recorded solubility for Cl.NCc1c[nH]c(=S)n1[C@H]1CCc2c(F)cc(F)cc2C1.O [crystal form I of hydrochloride salt]
Result: 33

* * *

EXPERIMENT_DESCRIPTION: Approximate solubility test of the free base of nepicastat
Assay type: physicochemical
DETAILS: organic solvent or mixture, thermodynamic from solid; approximate solubility; solvent Dichloromethane
EXPERIMENTAL_ENDPOINT: solubility

Query: Quickly give me recorded solubility for NCc1c[nH]c(=S)n1[C@H]1CCc2c(F)cc(F)cc2C1 [free base of nepicastat, Nepicastat]
Result: < 1000 µg/mL

* * *

EXPERIMENT_DESCRIPTION: Approximate solubility test on crystal forms of hydrochloride salt of nepicastat at room temperature
Type: physicochemical
DETAILS: aqueous with cosolvent or surfactant or cyclodextrin, thermodynamic from solid; room temperature; solvent 30% Methanol
EXPERIMENTAL_ENDPOINT: solubility

Query: Quickly give me recorded solubility for Cl.NCc1c[nH]c(=S)n1[C@H]1CCc2c(F)cc(F)cc2C1.O [crystal form I of hydrochloride salt]
Result: 21 to 42 mg/mL

* * *

EXPERIMENT_DESCRIPTION: Approximate solubility test of the free base of nepicastat
Format: physicochemical
DETAILS: organic solvent or mixture, thermodynamic from solid; approximate solubility; solvent Ethanol
Procedure: In order to select a suitable method for salt form screening, an approximate solubility test was conducted on the compound. […] The approximate solubility thereof was calculated.
EXPERIMENTAL_ENDPOINT: solubility

Query: Quickly give me recorded solubility for NCc1c[nH]c(=S)n1[C@H]1CCc2c(F)cc(F)cc2C1 [free base of nepicastat, Nepicastat]
Result: 2900 to 3400 µg/mL

* * *

EXPERIMENT_DESCRIPTION: Approximate solubility test on crystal forms of hydrochloride salt of nepicastat at room temperature
Format: physicochemical
DETAILS: organic solvent or mixture, thermodynamic from solid; room temperature; solvent 2-Butanone
EXPERIMENTAL_ENDPOINT: solubility

Query: Quickly give me recorded solubility for Cl.NCc1c[nH]c(=S)n1[C@H]1CCc2c(F)cc(F)cc2C1.O [crystal form I of hydrochloride salt]
Result: < 1 mg/mL

* * *

EXPERIMENT_DESCRIPTION: Approximate solubility test on crystal forms of hydrochloride salt of nepicastat at room temperature
Type: physicochemical
DETAILS: organic solvent or mixture, thermodynamic from solid; room temperature; solvent Isopropanol
EXPERIMENTAL_ENDPOINT: solubility (mg/mL)
// units = mg/mL; emit number, no label

Query: Quickly give me recorded solubility for Cl.NCc1c[nH]c(=S)n1[C@H]1CCc2c(F)cc(F)cc2C1.O [crystal form I of hydrochloride salt]
Result: 6

Cited source: patent US20260062388A1
